src = ChEMBL document CHEMBL1134590

# target-or-system: Integrin alpha-IIb/beta-3 (Homo sapiens, UniProt P05106+P08514)
# Sequence (P05106 27-788 limits assumed): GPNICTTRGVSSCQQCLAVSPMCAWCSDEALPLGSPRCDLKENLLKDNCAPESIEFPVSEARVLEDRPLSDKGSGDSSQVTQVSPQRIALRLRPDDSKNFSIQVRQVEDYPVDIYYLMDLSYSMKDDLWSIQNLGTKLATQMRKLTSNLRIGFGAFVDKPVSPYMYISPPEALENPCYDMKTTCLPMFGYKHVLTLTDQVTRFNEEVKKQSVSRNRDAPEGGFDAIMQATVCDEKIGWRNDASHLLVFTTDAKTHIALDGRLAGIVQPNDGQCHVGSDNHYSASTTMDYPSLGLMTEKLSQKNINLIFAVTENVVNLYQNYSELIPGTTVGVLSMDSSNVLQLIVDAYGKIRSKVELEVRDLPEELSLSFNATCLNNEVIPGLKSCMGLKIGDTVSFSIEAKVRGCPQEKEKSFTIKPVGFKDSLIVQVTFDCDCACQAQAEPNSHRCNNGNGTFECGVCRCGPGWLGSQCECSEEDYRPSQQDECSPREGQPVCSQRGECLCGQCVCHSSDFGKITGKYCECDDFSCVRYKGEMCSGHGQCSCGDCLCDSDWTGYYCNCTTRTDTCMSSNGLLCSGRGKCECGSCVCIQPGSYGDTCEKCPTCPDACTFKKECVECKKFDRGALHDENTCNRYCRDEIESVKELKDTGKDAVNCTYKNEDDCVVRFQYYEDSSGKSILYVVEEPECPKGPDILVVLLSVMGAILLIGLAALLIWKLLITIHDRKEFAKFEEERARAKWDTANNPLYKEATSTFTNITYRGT
# Sequence (P08514 32-887 limits assumed): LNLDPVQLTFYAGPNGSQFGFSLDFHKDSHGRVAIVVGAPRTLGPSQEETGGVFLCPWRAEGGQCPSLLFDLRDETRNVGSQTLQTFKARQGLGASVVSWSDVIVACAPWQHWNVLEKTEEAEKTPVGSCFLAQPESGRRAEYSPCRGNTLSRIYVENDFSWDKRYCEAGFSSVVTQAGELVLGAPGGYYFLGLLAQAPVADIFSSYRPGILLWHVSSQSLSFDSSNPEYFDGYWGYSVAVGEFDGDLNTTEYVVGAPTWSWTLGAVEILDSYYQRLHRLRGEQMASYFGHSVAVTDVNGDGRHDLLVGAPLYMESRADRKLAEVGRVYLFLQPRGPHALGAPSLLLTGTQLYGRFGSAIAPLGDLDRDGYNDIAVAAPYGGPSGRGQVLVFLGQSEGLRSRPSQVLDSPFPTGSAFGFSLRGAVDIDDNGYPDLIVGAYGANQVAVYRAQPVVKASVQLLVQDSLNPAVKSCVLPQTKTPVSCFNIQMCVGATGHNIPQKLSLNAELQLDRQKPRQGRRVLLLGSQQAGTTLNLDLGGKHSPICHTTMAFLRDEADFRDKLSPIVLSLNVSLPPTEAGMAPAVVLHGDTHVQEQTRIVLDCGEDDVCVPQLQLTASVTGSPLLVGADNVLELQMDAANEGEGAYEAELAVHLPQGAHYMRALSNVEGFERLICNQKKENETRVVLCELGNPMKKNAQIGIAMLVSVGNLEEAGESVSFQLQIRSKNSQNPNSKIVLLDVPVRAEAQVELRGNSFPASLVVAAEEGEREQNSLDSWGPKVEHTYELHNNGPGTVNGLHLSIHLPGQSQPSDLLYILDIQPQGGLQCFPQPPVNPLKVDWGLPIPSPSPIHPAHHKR
# Sequence (P08514 891-1039 limits assumed): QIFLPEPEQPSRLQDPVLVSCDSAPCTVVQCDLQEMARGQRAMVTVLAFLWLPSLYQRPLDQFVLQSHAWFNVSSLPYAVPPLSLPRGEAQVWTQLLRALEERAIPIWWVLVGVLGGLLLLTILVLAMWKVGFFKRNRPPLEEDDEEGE
# assay-summary: Inhibition of integrin alphaIIb-beta3 binding
pIC50: −log10 of the molar value.
experimental-readout: pIC50

### Prompt For "N=C(N)NCCC[C@H](N)C(=O)NCC(=O)N[C@@H](CC(=O)O)C(=O)O" , what is its reported pIC50?
### Response < 3.00
